- experimental-target: Muscarinic acetylcholine receptor M2 (Homo sapiens); further: in other assays of this panel Not Active means under 50% inhibition at 10 µM
- Sequence (P08172 whole entry): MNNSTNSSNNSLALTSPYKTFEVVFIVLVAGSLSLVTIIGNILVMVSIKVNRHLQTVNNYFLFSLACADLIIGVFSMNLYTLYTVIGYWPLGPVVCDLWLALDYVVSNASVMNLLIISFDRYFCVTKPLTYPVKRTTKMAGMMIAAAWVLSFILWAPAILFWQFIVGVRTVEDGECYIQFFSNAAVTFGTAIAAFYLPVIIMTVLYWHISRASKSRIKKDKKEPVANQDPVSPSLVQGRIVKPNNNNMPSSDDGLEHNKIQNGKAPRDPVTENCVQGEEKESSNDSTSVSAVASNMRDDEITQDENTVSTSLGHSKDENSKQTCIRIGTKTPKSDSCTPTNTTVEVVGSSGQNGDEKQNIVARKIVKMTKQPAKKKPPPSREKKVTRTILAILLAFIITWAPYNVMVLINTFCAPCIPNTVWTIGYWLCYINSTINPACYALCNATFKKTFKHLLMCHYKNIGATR
- Assay type: cell membranes, CHO-K1, Membrane
- test-settings: read-out: IC50
observation-type: IC50 (µM)
Numbers only; they are read as µM.

Short answer for CN(C)CCCN1c2ccccc2CCc2ccc(Cl)cc21 : IC50 was 0.241

The compound Clc1ccccc1C(c1ccccc1)(c1ccccc1)n1ccnc1 showed IC50 equal to 14.5

Documented IC50 of CCc1ccc(C(=O)C(C)CN2CCCCC2)cc1 (centres undefined) : 2.34

// IC50 lookup, compound = CNCCC=C1c2ccccc2CCc2ccccc21 , result: 0.347

----------
- experimental-target: Adenosine receptor A2a (Homo sapiens, UniProt P29274)
- Sequence (P29274 whole entry): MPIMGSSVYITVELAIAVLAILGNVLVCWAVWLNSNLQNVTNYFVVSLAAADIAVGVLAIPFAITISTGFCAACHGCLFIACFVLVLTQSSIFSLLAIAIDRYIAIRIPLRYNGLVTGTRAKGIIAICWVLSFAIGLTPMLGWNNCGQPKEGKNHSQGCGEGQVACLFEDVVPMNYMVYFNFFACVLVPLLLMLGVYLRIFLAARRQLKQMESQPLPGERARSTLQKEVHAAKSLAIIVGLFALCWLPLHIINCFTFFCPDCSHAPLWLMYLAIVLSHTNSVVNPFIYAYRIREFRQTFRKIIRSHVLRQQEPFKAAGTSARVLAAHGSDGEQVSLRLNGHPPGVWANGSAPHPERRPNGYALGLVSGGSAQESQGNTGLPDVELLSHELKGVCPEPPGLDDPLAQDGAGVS
- test-name: DRUGMATRIX: Adenosine A2A radioligand binding (ligand: […])
- Assay type: cell membranes, HEK293, Membrane
- test-settings: hek293; Not Active = under 50% inhibition at 10 µM
observation-type: IC50

Use the examples below as a reference point.
CCC1(c2ccccc2)C(=O)NCNC1=O ... Not Active
CN(C)CCCN1c2ccccc2CCc2ccc(Cl)cc21 ... Not Active
CC1(C)S[C@@H]2[C@H](NC(=O)[C@H](N)c3ccc(O)cc3)C(=O)N2[C@H]1C(=O)O ... Not Active
CCOC(=O)c1ccc(N)cc1 ... Not Active

In plain terms, COS(C)(=O)=O has a documented IC50 of Not Active

----------
- test-name: DRUGMATRIX: Leukotriene, BLT (LTB4) radioligand binding (ligand: [3H]LTB4)
- Type: cell membranes, Membrane
- test-settings: u-937; Not Active = under 50% inhibition at 10 µM
observation-type: Ki

Solved cases (6 shown):
NCC1(CC(=O)O)CCCCC1 [GABAPENTIN] ... Not Active
CC(C)(C)NCC(O)c1ccc(O)c(CO)c1 (centres undefined) [ALBUTEROL] ... Not Active
C[C@](N)(Cc1ccc(O)cc1)C(=O)O [METYROSINE] ... Not Active
NNc1ccccc1 [PHENYLHYDRAZINE] ... Not Active
CCCCCCCCCc1ccc(O)cc1 [4-NONYLPHENOL] ... Not Active
Cc1cc(NS(=O)(=O)c2ccc(N)cc2)no1 [SULFAMETHOXAZOLE] ... Not Active

Please examine the following record next.
Memo: CC[C@@]1(O)C(=O)OCc2c1cc1n(c2=O)Cc2cc3ccccc3nc2-1 [CAMPTOTHECIN] , reported Ki: Not Active
